// reported IC50 per item
SYSTEM NAME: PI3Kγ (Homo sapiens)
Sequence (P48736 whole entry, canonical isoform): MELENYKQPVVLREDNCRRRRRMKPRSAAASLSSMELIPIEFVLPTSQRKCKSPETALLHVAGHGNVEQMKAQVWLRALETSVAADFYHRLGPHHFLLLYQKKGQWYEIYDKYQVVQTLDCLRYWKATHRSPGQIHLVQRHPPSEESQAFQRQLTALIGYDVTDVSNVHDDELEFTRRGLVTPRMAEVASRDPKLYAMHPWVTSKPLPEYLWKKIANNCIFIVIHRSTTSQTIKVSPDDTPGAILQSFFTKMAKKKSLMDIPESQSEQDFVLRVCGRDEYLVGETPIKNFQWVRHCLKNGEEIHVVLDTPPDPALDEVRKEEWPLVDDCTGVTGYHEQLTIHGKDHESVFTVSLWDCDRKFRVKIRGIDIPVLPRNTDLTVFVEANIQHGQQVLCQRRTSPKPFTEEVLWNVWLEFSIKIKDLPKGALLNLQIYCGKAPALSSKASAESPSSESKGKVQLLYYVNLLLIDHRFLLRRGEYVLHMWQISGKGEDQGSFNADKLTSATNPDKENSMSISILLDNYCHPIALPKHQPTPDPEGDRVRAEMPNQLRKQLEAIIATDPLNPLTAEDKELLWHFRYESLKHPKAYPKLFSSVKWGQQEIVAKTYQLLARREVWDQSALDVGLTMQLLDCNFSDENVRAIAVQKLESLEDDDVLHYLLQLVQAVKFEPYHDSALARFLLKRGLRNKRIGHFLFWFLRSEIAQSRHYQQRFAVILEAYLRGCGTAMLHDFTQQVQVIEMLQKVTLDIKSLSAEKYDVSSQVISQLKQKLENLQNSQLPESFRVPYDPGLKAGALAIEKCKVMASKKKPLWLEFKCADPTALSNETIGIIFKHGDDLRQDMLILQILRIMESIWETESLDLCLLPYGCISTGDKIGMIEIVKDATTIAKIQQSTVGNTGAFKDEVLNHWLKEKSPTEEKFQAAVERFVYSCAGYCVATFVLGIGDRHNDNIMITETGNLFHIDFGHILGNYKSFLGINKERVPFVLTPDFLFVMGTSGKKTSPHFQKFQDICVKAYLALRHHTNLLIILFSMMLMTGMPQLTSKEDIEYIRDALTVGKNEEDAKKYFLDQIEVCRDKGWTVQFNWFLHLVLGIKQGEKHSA
TEST SUMMARY: PI3K isoform profiling, PI3Kγ (PI3Kδ protocol)
EXPERIMENTAL PARAMETERS: 10 dose IC50

{"columns": ["CHEMICAL STRING", "IC50"],
 "data": [
  ["C=CC(=O)N(CCn1nc(-c2cc(O)cc(F)c2)c2c(N)ncnc21)c1ccccc1", "9.07 µM"]
]}

Attention now turns to another entry.
Ask: Give IC50 for C=CC(=O)N(CCn1nc(-c2cc(O)cc(F)c2)c2c(N)ncnc21)Cc1ccccc1 tested on PI3Kγ (Homo sapiens).
Result: 10.5 µM
